Target: 5-hydroxytryptamine receptor 3A (Homo sapiens); also: assay procedure not described here
Sequence (P46098 whole entry): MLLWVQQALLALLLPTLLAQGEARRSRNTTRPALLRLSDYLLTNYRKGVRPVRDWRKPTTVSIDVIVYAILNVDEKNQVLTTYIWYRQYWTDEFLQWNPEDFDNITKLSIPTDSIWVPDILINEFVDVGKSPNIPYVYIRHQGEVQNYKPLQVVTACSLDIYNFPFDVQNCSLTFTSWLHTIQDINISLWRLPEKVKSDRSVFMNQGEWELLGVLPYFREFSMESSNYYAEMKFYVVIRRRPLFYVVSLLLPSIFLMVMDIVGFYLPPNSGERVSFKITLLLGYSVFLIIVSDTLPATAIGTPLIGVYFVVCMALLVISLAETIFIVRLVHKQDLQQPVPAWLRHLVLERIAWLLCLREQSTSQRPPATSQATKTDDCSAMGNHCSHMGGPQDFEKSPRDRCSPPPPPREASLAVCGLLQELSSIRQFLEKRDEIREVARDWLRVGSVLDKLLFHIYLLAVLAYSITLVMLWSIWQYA
Assay type: functional
Where a SMILES comes first, the peptide text is derived from it. [ ]: non-standard residue; d: D form. pGlu = O=C1CC[C@@H](C(=O)O)N1; Thz = O=C(O)[C@@H]1CSCN1
quantity: AC50

Could you tell me which AC50 is on file for CCCN1CCCC[C@H]1C(=O)Nc1c(C)cccc1C ?
> 30 µM

Could you tell me which AC50 is on file for Cc1nc(Nc2ncc(C(=O)Nc3c(C)cccc3Cl)s2)cc(N2CCN(CCO)CC2)n1 ?
> 30 µM

Could you tell me which AC50 is on file for CCC(=O)O[C@](Cc1ccccc1)(c1ccccc1)[C@H](C)CN(C)C ?
> 30 µM

Could you tell me which AC50 is on file for O=C1c2cccc3c2[C@H](CCC3)CN1[C@@H]1CN2CCC1CC2 ?
0.0021 µM

Could you tell me which AC50 is on file for COC(=O)[C@H]1[C@H]2C[C@@H]3c4[nH]c5cc(OC)ccc5c4CCN3C[C@H]2C[C@@H](OC(=O)c2cc(OC)c(OC)c(OC)c2)[C@@H]1OC ?
> 30 µM

Could you tell me which AC50 is on file for CNCCc1ccc(OC(=O)C(C)C)c(OC(=O)C(C)C)c1 ?
> 30 µM

Could you tell me which AC50 is on file for CCOC(=O)C1=C(C)NC(C)=C(C(=O)OCC)C1c1ccccc1/C=C/C(=O)OC(C)(C)C ?
> 30 µM

Could you tell me which AC50 is on file for CN[C@@H](C)[C@@H](O)c1ccccc1 ?
> 30 µM

Could you tell me which AC50 is on file for O=C(/C=C/c1cccc(S(=O)(=O)Nc2ccccc2)c1)NO ?
> 30 µM

Could you tell me which AC50 is on file for CC1(C)S[C@@H]2[C@H](NC(=O)C(C(=O)O)c3ccccc3)C(=O)N2[C@H]1C(=O)O (some centres not stated) ?
> 30 µM

Could you tell me which AC50 is on file for Cn1c(=O)c2c(ncn2CCOC(=O)C(C)(C)Oc2ccc(Cl)cc2)n(C)c1=O [THEOFIBRATE] ?
> 30 µM

Could you tell me which AC50 is on file for O=C(O)COCCN1CCN(C(c2ccccc2)c2ccc(Cl)cc2)CC1 (configuration not stated) ?
> 30 µM

Could you tell me which AC50 is on file for CO/N=C(\C(=O)N[C@@H]1C(=O)N2C(C(=O)O)=C(CSc3nc(=O)c(=O)[nH]n3C)CS[C@H]12)c1csc(N)n1 ?
> 30 µM

Could you tell me which AC50 is on file for C[N+]1(C)CCC(=C(c2ccccc2)c2ccccc2)CC1 ?
6.1 µM

Could you tell me which AC50 is on file for Oc1cc(O)c(Cl)cn1 ?
> 30 µM

Could you tell me which AC50 is on file for C=CC[N+]1([C@H]2C[C@H]3[C@@H]4CC[C@H]5C[C@H](O)[C@@H](N6CCOCC6)C[C@]5(C)[C@H]4CC[C@]3(C)[C@H]2OC(C)=O)CCCC1 ?
> 30 µM

Could you tell me which AC50 is on file for CC(O)(CS(=O)(=O)c1ccc(F)cc1)C(=O)Nc1ccc(C#N)c(C(F)(F)F)c1 (configuration not stated) [BICALUTAMIDE] ?
> 10 µM

Could you tell me which AC50 is on file for O=C1CC[C@@H](C(=O)N2CSC[C@H]2C(=O)O)N1 [PIDOTIMOD] ([pGlu]-[Thz]-OH) ?
> 30 µM

Could you tell me which AC50 is on file for C/C=C(/C(=C/C)c1ccc(O)cc1)c1ccc(O)cc1 ?
> 30 µM

Could you tell me which AC50 is on file for CC(C)(C)NCC(O)c1ccccc1Cl (configuration not stated) ?
> 30 µM

Could you tell me which AC50 is on file for COc1ccc(C2C(=O)c3ccccc3C2=O)cc1 ?
> 30 µM

Could you tell me which AC50 is on file for Cn1cc(C(=O)[C@@H]2CCc3nc[nH]c3C2)c2ccccc21 ?
0.0004 µM

Could you tell me which AC50 is on file for CC1=C(/C=C/C(C)=C/C=C/C(C)=C/CO)C(C)(C)CCC1 ?
> 30 µM

Could you tell me which AC50 is on file for O=S1(=O)CCN(CN2CCS(=O)(=O)NC2)CN1 ?
> 30 µM

Could you tell me which AC50 is on file for CC(=O)Nc1ccc(CC(=O)O)cc1 ?
> 30 µM

Could you tell me which AC50 is on file for COc1cc(C(=O)NC2CCCNC2)cc(OC)c1OC (configuration not stated) [TROXIPIDE] ?
> 30 µM

Could you tell me which AC50 is on file for O=C(NCCO[N+](=O)[O-])c1cccnc1 ?
> 30 µM

Could you tell me which AC50 is on file for Cc1ccccc1-n1c(CF)nc2ccc(N)cc2c1=O ?
> 30 µM

Could you tell me which AC50 is on file for NC[C@H]1CC[C@H](C(=O)Oc2ccc(CCC(=O)O)cc2)CC1 [CETRAXATE] ?
> 30 µM

Could you tell me which AC50 is on file for Cc1ccccc1N1C(=O)c2cc(S(N)(=O)=O)c(Cl)cc2NC1C (configuration not stated) ?
> 30 µM

Could you tell me which AC50 is on file for CC[C@H](C)C(=O)O[C@H]1C[C@@H](C)C=C2C=C[C@H](C)[C@H](CC[C@@H]3C[C@@H](O)CC(=O)O3)[C@H]21 ?
> 30 µM

Could you tell me which AC50 is on file for CC(C)C[C@H](NC(=O)[C@@H](O)[C@H](N)Cc1ccccc1)C(=O)O ?
> 30 µM

Could you tell me which AC50 is on file for CC(CN1c2ccccc2Sc2ccccc21)N(C)C (configuration not stated) ?
> 30 µM

Could you tell me which AC50 is on file for NNC(=O)c1ccncc1 ?
> 30 µM

Could you tell me which AC50 is on file for CC(C)NC[C@H](O)COc1ccc(CC(N)=O)cc1 ?
> 10 µM

Could you tell me which AC50 is on file for S=P(N1CC1)(N1CC1)N1CC1 ?
> 30 µM

Could you tell me which AC50 is on file for C[N+](C)(C)CCOP(=O)([O-])OC[C@H](O)CO ?
> 30 µM

The reported numbers originate from ChEMBL document CHEMBL5291721.
